Parameter LDH: see the listing below.
- Organism: Rattus norvegicus
- PROTOCOL_NOTES: Open TG-GATES - Regimen: Single
- Assay type: toxicity, organism-based, Sprague-Dawley
- Design: regimen Single, gender Male, age 6 weeks
- CONDITION_PARAMETERS: in vivo, po, 0 mg/kg, 6 h, tissue Plasma, route gavage, dose level Control
ASSAY_ENDPOINT: LDH (IU/L)

>  <COMPOUND>
NNC(=O)c1ccncc1

>  <OBSERVED>
156.6

$$$$
>  <COMPOUND>
COc1cc2c(c(OC)c1OC)-c1ccc(OC)c(=O)cc1[C@@H](NC(C)=O)CC2

>  <OBSERVED>
77.2

$$$$
>  <COMPOUND>
CCOc1ccc(NC(=O)CC(C)O)cc1 (stereo not drawn)

>  <OBSERVED>
70.4

$$$$

* * *

- Species: Rattus norvegicus
- PROTOCOL_NOTES: Open TG-GATES - Regimen: Daily Repeat
- Format: toxicity, organism-based, Sprague-Dawley
- Parameters: regimen Daily Repeat, gender Male, age 6 weeks
- CONDITION_PARAMETERS: in vivo, po, 0 mg/kg, […], tissue Plasma, route gavage, dose level Control, time 14 day

>  <COMPOUND>
CC(C)OC(=O)C(C)(C)Oc1ccc(C(=O)c2ccc(Cl)cc2)cc1 [FENOFIBRATE]

>  <gamma-GTP [IU/L]>
1

$$$$
>  <COMPOUND>
CCCNC(=O)NS(=O)(=O)c1ccc(Cl)cc1 [CHLORPROPAMIDE]

>  <gamma-GTP [IU/L]>
1

$$$$
>  <COMPOUND>
CCOc1ccc(NC(=O)CC(C)O)cc1 (stereo not given)

>  <gamma-GTP [IU/L]>
1.2

$$$$
>  <COMPOUND>
NC(N)=Nc1nc(CSCCC(N)=NS(N)(=O)=O)cs1

>  <gamma-GTP [IU/L]>
1.4

$$$$
>  <COMPOUND>
CN(C)CCCN1c2ccccc2CCc2ccccc21

>  <gamma-GTP [IU/L]>
1

$$$$

* * *

- Organism: Rattus norvegicus
- PROTOCOL_NOTES: Open TG-GATES - Regimen: Single
- Assay type: toxicity, organism-based, Sprague-Dawley
- Design: regimen Single, gender Male, age 6 weeks
- CONDITION_PARAMETERS: in vivo, po, 0 mg/kg, 3 h, tissue Plasma, route gavage, dose level Control

>  <MOLECULE>
CN1C(=O)CN=C(c2ccccc2)c2cc(Cl)ccc21 [DIAZEPAM]

>  <TBIL / mg/dL>
0.4

$$$$
>  <MOLECULE>
CN(C)CCN(Cc1cccs1)c1ccccn1

>  <TBIL / mg/dL>
0.008

$$$$
>  <MOLECULE>
CN(C)CCCN1c2ccccc2CCc2ccc(Cl)cc21 [CLOMIPRAMINE]

>  <TBIL / mg/dL>
0.074

$$$$
>  <MOLECULE>
CC/C(=C(\c1ccccc1)c1ccc(OCCN(C)C)cc1)c1ccccc1 [TAMOXIFEN]

>  <TBIL / mg/dL>
0.042

$$$$
>  <MOLECULE>
C[C@@H]1C[C@H]2[C@@H]3CCC4=CC(=O)C=C[C@]4(C)[C@@]3(F)[C@@H](O)C[C@]2(C)[C@@]1(O)C(=O)CO [DEXAMETHASONE]

>  <TBIL / mg/dL>
0.044

$$$$
>  <MOLECULE>
CCOC(=O)CCC(=O)O[C@H]1[C@H](O[C@@H]2[C@@H](C)[C@H](O[C@H]3C[C@@](C)(OC)[C@@H](O)[C@H](C)O3)[C@@H](C)C(=O)O[C@H](CC)[C@@](C)(O)[C@H](O)[C@@H](C)C(=O)[C@H](C)C[C@@]2(C)O)O[C@H](C)C[C@@H]1N(C)C [ERYTHROMYCIN ETHYLSUCCINATE]

>  <TBIL / mg/dL>
0.012

$$$$
>  <MOLECULE>
CCCNC(=O)NS(=O)(=O)c1ccc(Cl)cc1 [CHLORPROPAMIDE]

>  <TBIL / mg/dL>
0.04

$$$$
>  <MOLECULE>
COC1=CC(=O)C[C@@H](C)[C@]12Oc1c(Cl)c(OC)cc(OC)c1C2=O [GRISEOFULVIN]

>  <TBIL / mg/dL>
0.2

$$$$
>  <MOLECULE>
CN(C)CCCN1c2ccccc2CCc2ccccc21 [IMIPRAMINE]

>  <TBIL / mg/dL>
0.07

$$$$
>  <MOLECULE>
NNC(=O)c1ccncc1 [ISONIAZID]

>  <TBIL / mg/dL>
0.1

$$$$
>  <MOLECULE>
Cc1ccc(C)c(OCCCC(C)(C)C(=O)O)c1 [GEMFIBROZIL]

>  <TBIL / mg/dL>
0.052

$$$$
>  <MOLECULE>
O=C(CCCN1CCC(O)(c2ccc(Cl)cc2)CC1)c1ccc(F)cc1 [HALOPERIDOL]

>  <TBIL / mg/dL>
0.4

$$$$

* * *

- Organism: Rattus norvegicus
- PROTOCOL_NOTES: Open TG-GATES - Regimen: Single
- Assay type: toxicity, organism-based, Sprague-Dawley
- Design: regimen Single, gender Male, age 6 weeks
- CONDITION_PARAMETERS: in vivo, po, 0 mg/kg, 24 h, tissue Blood, route gavage, dose level Control

>  <COMPOUND>
O=C(CCCN1CCC(O)(c2ccc(Cl)cc2)CC1)c1ccc(F)cc1

>  <MCH>
22 pg

$$$$
>  <COMPOUND>
CCOC(=O)CCC(=O)O[C@H]1[C@H](O[C@@H]2[C@@H](C)[C@H](O[C@H]3C[C@@](C)(OC)[C@@H](O)[C@H](C)O3)[C@@H](C)C(=O)O[C@H](CC)[C@@](C)(O)[C@H](O)[C@@H](C)C(=O)[C@H](C)C[C@@]2(C)O)O[C@H](C)C[C@@H]1N(C)C [ERYTHROMYCIN ETHYLSUCCINATE]

>  <MCH>
21.4 pg

$$$$
>  <COMPOUND>
CN1C(=O)CN=C(c2ccccc2)c2cc(Cl)ccc21

>  <MCH>
21.9 pg

$$$$

* * *

Parameter Ht: see the listing below.
- Organism: Rattus norvegicus
- PROTOCOL_NOTES: Open TG-GATES - Regimen: Single
- Type: toxicity, organism-based, Sprague-Dawley
- Set-up: regimen Single, gender Male, age 6 weeks
- CONDITION_PARAMETERS: in vivo, po, 0 mg/kg, 6 h, tissue Blood, route gavage, dose level Control
ASSAY_ENDPOINT: Ht

>  <COMPOUND>
CCOC(=O)CCC(=O)O[C@H]1[C@H](O[C@@H]2[C@@H](C)[C@H](O[C@H]3C[C@@](C)(OC)[C@@H](O)[C@H](C)O3)[C@@H](C)C(=O)O[C@H](CC)[C@@](C)(O)[C@H](O)[C@@H](C)C(=O)[C@H](C)C[C@@]2(C)O)O[C@H](C)C[C@@H]1N(C)C [ERYTHROMYCIN ETHYLSUCCINATE]

>  <ASSAY_ENDPOINT>
Ht

>  <OBSERVED>
42.2%

$$$$
>  <COMPOUND>
CC/C(=C(\c1ccccc1)c1ccc(OCCN(C)C)cc1)c1ccccc1

>  <ASSAY_ENDPOINT>
Ht

>  <OBSERVED>
39.6%

$$$$
>  <COMPOUND>
NC(N)=Nc1nc(CSCCC(N)=NS(N)(=O)=O)cs1

>  <ASSAY_ENDPOINT>
Ht

>  <OBSERVED>
37.6%

$$$$
>  <COMPOUND>
CC(C)OC(=O)C(C)(C)Oc1ccc(C(=O)c2ccc(Cl)cc2)cc1 [FENOFIBRATE]

>  <ASSAY_ENDPOINT>
Ht

>  <OBSERVED>
40.1%

$$$$
>  <COMPOUND>
CCOc1ccc(NC(=O)CC(C)O)cc1 (configuration not stated)

>  <ASSAY_ENDPOINT>
Ht

>  <OBSERVED>
40%

$$$$
>  <COMPOUND>
COc1cc2c(c(OC)c1OC)-c1ccc(OC)c(=O)cc1[C@@H](NC(C)=O)CC2

>  <ASSAY_ENDPOINT>
Ht

>  <OBSERVED>
39.9%

$$$$
>  <COMPOUND>
CN1C(=O)CN=C(c2ccccc2)c2cc(Cl)ccc21

>  <ASSAY_ENDPOINT>
Ht

>  <OBSERVED>
41.8%

$$$$

* * *

- Organism: Rattus norvegicus
- PROTOCOL_NOTES: Open TG-GATES - Regimen: Single
- Format: toxicity, organism-based, Sprague-Dawley
- Parameters: regimen Single, gender Male, age 6 weeks
- CONDITION_PARAMETERS: in vivo, po, 0 mg/kg, 24 h, tissue Plasma, route gavage, dose level Control

>  <MOLECULE>
C[C@@H]1C[C@H]2[C@@H]3CCC4=CC(=O)C=C[C@]4(C)[C@@]3(F)[C@@H](O)C[C@]2(C)[C@@]1(O)C(=O)CO [DEXAMETHASONE]

>  <K>
4.4 meq/L

$$$$
>  <MOLECULE>
COC1=CC(=O)C[C@@H](C)[C@]12Oc1c(Cl)c(OC)cc(OC)c1C2=O [GRISEOFULVIN]

>  <K>
4.2 meq/L

$$$$
>  <MOLECULE>
CC(C)OC(=O)C(C)(C)Oc1ccc(C(=O)c2ccc(Cl)cc2)cc1 [FENOFIBRATE]

>  <K>
4.4 meq/L

$$$$
>  <MOLECULE>
NNC(=O)c1ccncc1 [ISONIAZID]

>  <K>
4.2 meq/L

$$$$
>  <MOLECULE>
CN(C)CCCN1c2ccccc2CCc2ccc(Cl)cc21 [CLOMIPRAMINE]

>  <K>
4.1 meq/L

$$$$
>  <MOLECULE>
COc1ccc2[nH]c([S+]([O-])Cc3ncc(C)c(OC)c3C)nc2c1 (configuration not stated) [OMEPRAZOLE]

>  <K>
4.2 meq/L

$$$$
>  <MOLECULE>
CN(C)CCCN1c2ccccc2CCc2ccccc21 [IMIPRAMINE]

>  <K>
3.9 meq/L

$$$$
